Kindly supply the reported inhibition values for the records listed here.
Tested on: mevalonate kinase [Streptococcus pneumoniae D39]
protocolNotes: pneumococcal mevalonate kinase activity blockers – biochemical, PK/LDH-coupled NADH absorbance, primary screen (AID 555)
protocolConditions: purified MK, PK/LDH-coupled NADH absorbance 340 nm; measured here: pilot screen replicates; at 10 µM; stronger effect = higher value
Among all 65,000 compounds or so, about 320 (0.49%) were called active. For the sample, actives were picked, then their nearest neighbours and some compounds at random.
Report field: quantity (unit follows the number).

Observe how each entry below is paired with its result.
>>> observedmeasurement("O=C1N=C(N2CCOCC2)CS1")
"1%"
>>> observedmeasurement("Cc1nn(C(=O)c2ccoc2C)c(N)c1-c1ccccc1")
"1.5%"
>>> observedmeasurement("CCn1c(CNc2ccc(OC)cc2)nnc1SCC(=O)c1ccc(OC)cc1")
"0%"

Here is the next item to consider.
Exercise: Can you share its inhibition? I mean this molecule: "COc1ccccc1N1CCN(Cc2nnnn2CCc2ccccc2)CC1"
Solution: 0%

====

Kindly supply the reported inhibition values for the records listed here.
Test system: mevalonate kinase [Streptococcus pneumoniae D39]
protocolNotes: pneumococcal mevalonate kinase activity blockers – biochemical, PK/LDH-coupled NADH absorbance, primary screen (AID 555)
protocolConditions: purified MK, PK/LDH-coupled NADH absorbance 340 nm; at 10 µM; stronger effect = higher value
In all, about 65,000 compounds went through this assay and about 320 (0.49%) were called active. Many of the other results were omitted from the sample, so actives are more common in it than they were.
Answers are plain numbers, in %.

Observe how each entry below is paired with its result.
>>> observedmeasurement("CCn1c(-c2cc(OC)ccc2OC)csc1=Nc1c(C)n(C)n(-c2ccccc2)c1=O")
3
>>> observedmeasurement("COc1ccc(Br)cc1/C=N/n1c(C)nnc1C")
1
>>> observedmeasurement("C=CCNC(=O)C12CC3CC(C1)CC(C(=O)NCC=C)(C3)C2")
4

Please give inhibition, item by item, for the list that follows.
1. CCOC(=O)C1CCN(C(=O)C2CCN(S(=O)(=O)N3CCCC3)CC2)CC1
2. Cc1ccc(C(=O)O)cc1S(=O)(=O)NCC1CCCO1 (stereo unspecified)
3. O=C(CN1CCN(S(=O)(=O)/C=C/c2ccccc2)CC1)NC(=O)NCc1ccco1
4. COc1ccc(Cn2c(=O)sc3ccccc32)cc1OC
5. CC(=O)NCCc1ccc(S(=O)(=O)N(C)C2CCS(=O)(=O)C2)cc1 (stereo unspecified)
6. Fc1ccc(-c2nnc(CSc3nnc(-c4ccc5c(c4)OCO5)o3)o2)cc1

Solution:
0
7
2
1
5
3

Please give inhibition, item by item, for the list that follows.
1. CC(=O)C1C(c2cccc(Oc3ccccc3)c2)NC(=O)NC1(O)C(F)(F)F (stereo unspecified)
2. N#CCCn1ncc2ccccc21
3. CCOC(=O)c1c(NC(=O)CSc2nnc(Cc3csc(N)n3)n2C)sc(C)c1C
4. Cc1ccc(S(=O)(=O)N2CCN(Cc3cccc(C)c3O)CC2)cc1
5. Cc1ccn2cc(-c3nonc3C)cc2c1
6. CCOC(=O)N1CCC(Nc2c(NCCN3CCN(c4cccc(Cl)c4)CC3)c(=O)c2=O)CC1
7. O=C(c1ccco1)N1CCN(C(=O)c2ccc(COc3ccc(F)cc3)o2)CC1

Solution:
1. 0
2. 5
3. 7
4. 13
5. 9
6. 7
7. 5

====

Test system: mevalonate kinase [Streptococcus pneumoniae D39]
protocolNotes: pneumococcal mevalonate kinase activity blockers – biochemical, PK/LDH-coupled NADH absorbance, primary screen (AID 555)
protocolConditions: purified MK, PK/LDH-coupled NADH absorbance 340 nm; at 10 µM
The whole screen tested about 65,000 compounds, of which about 320 (0.49%) were called active.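 The calls were made as follows: active = ranked among the strongest by inhibition in the single 10 µM screen, a fixed top-ranked set picked for dose follow-up; inactive = the rest, inconclusive results apart.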 Many of the other results were omitted from the sample, so actives are more common in it than they were.
// classify into y for active, n for inactive

Solved entries (count: 3):
>>> classlabel("Cc1ccc(C(c2sc3nc(C)nn3c2O)N2CCN(c3ccc(F)cc3)CC2)cc1 (stereo unspecified)")
"n"
>>> classlabel("O=C(NCc1ccco1)c1cccn2c(=O)c3cc(Br)ccc3nc12")
"n"
>>> classlabel("CC(C)(C)c1cc(C(=O)NCc2cccnc2)ccn1")
"n"

Now for another entry.
Exercise: Any idea what this test logged for CCOc1ccccc1C1CC(c2ccc(Cl)cc2)Nc2nc(N)nn21 (stereo unspecified) ?
Solution: n
